These measurements were taken from PubChem BioAssay AID1963421.

- Tested on: 519858-162-T-J1-PDC complex spheroid growth, % test/control
- experimental.details: Anticancer human tumor 519858-162-T-J1-PDC patient-derived colon adenocarcinoma cell line growth inhibition [Asc]
- study.conditions: second compound 0.0316 µM; first compound 3.16 µM; active compounds read low
Answer each item with its documented viability, T/C.

1) C=C(F)C(=O)N1CCN(c2nc(OCC3CCCN3C)nc3c2CCN(c2cccc4cccc(Cl)c24)C3)CC1CC#N (stereo not drawn) + CNC(C)C(=O)NC1CN(S(=O)(=O)c2cccc(S(=O)(=O)N3CCC4CCC(C(=O)NC(c5ccccc5)c5ccccc5)N4C(=O)C(NC(=O)C(C)NC)C3)c2)CCC2CCC(C(=O)NC(c3ccccc3)c3ccccc3)N2C1=O: 95.7%

// for each molecule below, give its viability, T/C
1. C=C(F)C(=O)N1CCN(c2nc(OCC3CCCN3C)nc3c2CCN(c2cccc4cccc(Cl)c24)C3)CC1CC#N (stereo not drawn) + Cc1c(S(C)(=O)=O)c(-c2cc(F)cc(N3CCN(c4ccc(NS(=O)(=O)c5ccc(NC(CCN6CCC(C(=O)OCCCP(=O)(O)O)CC6)CSc6ccccc6)c(S(=O)(=O)C(F)(F)F)c5)cc4)CC3)c2)c(-c2ccc(Cl)cc2)n1C(C)C
2. O=C(c1cc(Cc2n[nH]c(=O)c3ccccc23)ccc1F)N1CCN(C(=O)C2CC2)CC1 + Cc1c(S(C)(=O)=O)c(-c2cc(F)cc(N3CCN(c4ccc(NS(=O)(=O)c5ccc(NC(CCN6CCC(C(=O)OCCCP(=O)(O)O)CC6)CSc6ccccc6)c(S(=O)(=O)C(F)(F)F)c5)cc4)CC3)c2)c(-c2ccc(Cl)cc2)n1C(C)C

Resp:
82.6%
91.5%

====

Give measured viability, T/C for each item. Keep answers brief.
- Test system: 519858-162-T-J1-PDC complex spheroid growth, % test/control
- experimental.details: Anticancer human tumor 519858-162-T-J1-PDC cell line growth inhibition [Asc];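 note: seven day drug exposure begun three days after spheroid seeding; 100% = DMSO vehicle wells and lower values mean less viable spheroid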
- study.conditions: second compound 0.00949 µM; first compound 1 µM; active compounds read low
Give bare numbers, in %.

1. CCN1CCN(Cc2ccc(Nc3ncc(F)c(-c4cc(F)c5nc(C)n(C(C)C)c5c4)n3)nc2)CC1 + CCN1C(C(=O)NC23CCC(C(=O)O)(CC2)CC3)C(c2cccc(Cl)c2F)C2(C(=O)Nc3cc(Cl)ccc32)C12CCCCC2: 71

Below is a list of compounds. For each, state its recorded viability, T/C.
1. O=C(c1cc(Cc2n[nH]c(=O)c3ccccc23)ccc1F)N1CCN(C(=O)C2CC2)CC1 + CCN1C(C(=O)NC23CCC(C(=O)O)(CC2)CC3)C(c2cccc(Cl)c2F)C2(C(=O)Nc3cc(Cl)ccc32)C12CCCCC2
2. C=C(F)C(=O)N1CCN(c2nc(OCC3CCCN3C)nc3c2CCN(c2cccc4cccc(Cl)c24)C3)CC1CC#N (stereo not drawn) + CCN1C(C(=O)NC23CCC(C(=O)O)(CC2)CC3)C(c2cccc(Cl)c2F)C2(C(=O)Nc3cc(Cl)ccc32)C12CCCCC2
3. C#Cc1c(F)ccc2cc(O)cc(-c3ncc4c(N5CC6CCC(C5)N6)nc(OCC56CCCN5CC(F)C6)nc4c3F)c12 (stereo not drawn) + CCN1C(C(=O)NC23CCC(C(=O)O)(CC2)CC3)C(c2cccc(Cl)c2F)C2(C(=O)Nc3cc(Cl)ccc32)C12CCCCC2
4. COc1c(OCCCN2CCOCC2)ccc2c3n(c(=NC(=O)c4cnc(N)nc4)nc12)CCN3 + CCN1C(C(=O)NC23CCC(C(=O)O)(CC2)CC3)C(c2cccc(Cl)c2F)C2(C(=O)Nc3cc(Cl)ccc32)C12CCCCC2
5. C=CC(=O)N1CCN(c2nc(=O)n(-c3c(C)ccnc3C(C)C)c3nc(-c4c(O)cccc4F)c(F)cc23)C(C)C1 (stereo not drawn) + CCN1C(C(=O)NC23CCC(C(=O)O)(CC2)CC3)C(c2cccc(Cl)c2F)C2(C(=O)Nc3cc(Cl)ccc32)C12CCCCC2

Resp:
[81, 96.3, 66.3, 53, 108]

Your task in this section: give viability, T/C for each listed record.
1. CNC(C)C(=O)NC1CN(S(=O)(=O)c2cccc(S(=O)(=O)N3CCC4CCC(C(=O)NC(c5ccccc5)c5ccccc5)N4C(=O)C(NC(=O)C(C)NC)C3)c2)CCC2CCC(C(=O)NC(c3ccccc3)c3ccccc3)N2C1=O (stereo not drawn) + CCN1C(C(=O)NC23CCC(C(=O)O)(CC2)CC3)C(c2cccc(Cl)c2F)C2(C(=O)Nc3cc(Cl)ccc32)C12CCCCC2
2. O=C(c1ccc(F)c(F)c1Nc1ccc(I)cc1F)N1CC(O)([C@@H]2CCCCN2)C1 + CCN1C(C(=O)NC23CCC(C(=O)O)(CC2)CC3)C(c2cccc(Cl)c2F)C2(C(=O)Nc3cc(Cl)ccc32)C12CCCCC2

Resp:
1. 74.6
2. 19.1

====

- Test system: 519858-162-T-J1-PDC complex spheroid growth, % test/control
- experimental.details: Anticancer human tumor 519858-162-T-J1-PDC cell line growth inhibition [Asc];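 note: seven day drug exposure begun three days after spheroid seeding; 100% = DMSO vehicle wells and lower values mean less viable spheroid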
- study.conditions: second compound 0.01 µM; first compound 10 µM; active compounds read low
For each entry below, report its viability, T/C value.
Give bare numbers, in %.

# count of solved cases: 3
1. C=C(F)C(=O)N1CCN(c2nc(OCC3CCCN3C)nc3c2CCN(c2cccc4cccc(Cl)c24)C3)CC1CC#N (centres undefined) + CNC(C)C(=O)NC1CN(S(=O)(=O)c2cccc(S(=O)(=O)N3CCC4CCC(C(=O)NC(c5ccccc5)c5ccccc5)N4C(=O)C(NC(=O)C(C)NC)C3)c2)CCC2CCC(C(=O)NC(c3ccccc3)c3ccccc3)N2C1=O: 108
2. C=CC(=O)N1CCN(c2nc(=O)n(-c3c(C)ccnc3C(C)C)c3nc(-c4c(O)cccc4F)c(F)cc23)C(C)C1 (centres undefined) + CNC(C)C(=O)NC1CN(S(=O)(=O)c2cccc(S(=O)(=O)N3CCC4CCC(C(=O)NC(c5ccccc5)c5ccccc5)N4C(=O)C(NC(=O)C(C)NC)C3)c2)CCC2CCC(C(=O)NC(c3ccccc3)c3ccccc3)N2C1=O: 92.4
3. O=C(c1cc(Cc2n[nH]c(=O)c3ccccc23)ccc1F)N1CCN(C(=O)C2CC2)CC1 + CNC(C)C(=O)NC1CN(S(=O)(=O)c2cccc(S(=O)(=O)N3CCC4CCC(C(=O)NC(c5ccccc5)c5ccccc5)N4C(=O)C(NC(=O)C(C)NC)C3)c2)CCC2CCC(C(=O)NC(c3ccccc3)c3ccccc3)N2C1=O: 87

Entry C#Cc1c(F)ccc2cc(O)cc(-c3ncc4c(N5CC6CCC(C5)N6)nc(OCC56CCCN5CC(F)C6)nc4c3F)c12 (centres undefined) + CNC(C)C(=O)NC1CN(S(=O)(=O)c2cccc(S(=O)(=O)N3CCC4CCC(C(=O)NC(c5ccccc5)c5ccccc5)N4C(=O)C(NC(=O)C(C)NC)C3)c2)CCC2CCC(C(=O)NC(c3ccccc3)c3ccccc3)N2C1=O , viability, T/C reported as 77.3

====

- System: 519858-162-T-J1-PDC complex spheroid growth, % test/control
- experimental.details: Anticancer human tumor 519858-162-T-J1-PDC cell line growth inhibition [Asc];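 note: seven day drug exposure begun three days after spheroid seeding; 100% = DMSO vehicle wells and lower values mean less viable spheroid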
- study.conditions: second compound 3.16 µM; first compound 0.00316 µM; active compounds read low
Can you tell me viability, T/C for the items I'm about to list?
Answers are plain numbers, in %.

# annotated cases, reported viability, T/C shown
1. Cn1ncnc1[C@H]1c2n[nH]c(=O)c3cc(F)cc(c23)N[C@@H]1c1ccc(F)cc1 + Cc1c(S(C)(=O)=O)c(-c2cc(F)cc(N3CCN(c4ccc(NS(=O)(=O)c5ccc(NC(CCN6CCC(C(=O)OCCCP(=O)(O)O)CC6)CSc6ccccc6)c(S(=O)(=O)C(F)(F)F)c5)cc4)CC3)c2)c(-c2ccc(Cl)cc2)n1C(C)C: 83.7
2. CCN1CCN(Cc2ccc(Nc3ncc(F)c(-c4cc(F)c5nc(C)n(C(C)C)c5c4)n3)nc2)CC1 + Cc1c(S(C)(=O)=O)c(-c2cc(F)cc(N3CCN(c4ccc(NS(=O)(=O)c5ccc(NC(CCN6CCC(C(=O)OCCCP(=O)(O)O)CC6)CSc6ccccc6)c(S(=O)(=O)C(F)(F)F)c5)cc4)CC3)c2)c(-c2ccc(Cl)cc2)n1C(C)C: 90.5

Lab note: next compound to report on.
The compound identified as COc1c(OCCCN2CCOCC2)ccc2c3n(c(=NC(=O)c4cnc(N)nc4)nc12)CCN3 + Cc1c(S(C)(=O)=O)c(-c2cc(F)cc(N3CCN(c4ccc(NS(=O)(=O)c5ccc(NC(CCN6CCC(C(=O)OCCCP(=O)(O)O)CC6)CSc6ccccc6)c(S(=O)(=O)C(F)(F)F)c5)cc4)CC3)c2)c(-c2ccc(Cl)cc2)n1C(C)C registered its viability, T/C at 84.1

====

- Test system: 519858-162-T-J1-PDC complex spheroid growth, % test/control
- experimental.details: Anticancer human tumor 519858-162-T-J1-PDC cell line growth inhibition [Asc];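 note: seven day drug exposure begun three days after spheroid seeding; 100% = DMSO vehicle wells and lower values mean less viable spheroid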
- study.conditions: second compound 3.16 µM; first compound 0.00316 µM; active compounds read low
Please provide measured viability, T/C for the entries that follow.
Numbers only, in %.

As a guide, the following entries are already answered.
1. CNC(C)C(=O)NC1CN(S(=O)(=O)c2cccc(S(=O)(=O)N3CCC4CCC(C(=O)NC(c5ccccc5)c5ccccc5)N4C(=O)C(NC(=O)C(C)NC)C3)c2)CCC2CCC(C(=O)NC(c3ccccc3)c3ccccc3)N2C1=O (stereo not drawn) + Cc1c(S(C)(=O)=O)c(-c2cc(F)cc(N3CCN(c4ccc(NS(=O)(=O)c5ccc(NC(CCN6CCC(C(=O)OCCCP(=O)(O)O)CC6)CSc6ccccc6)c(S(=O)(=O)C(F)(F)F)c5)cc4)CC3)c2)c(-c2ccc(Cl)cc2)n1C(C)C: 86.9
2. O=C(c1ccc(F)c(F)c1Nc1ccc(I)cc1F)N1CC(O)([C@@H]2CCCCN2)C1 + Cc1c(S(C)(=O)=O)c(-c2cc(F)cc(N3CCN(c4ccc(NS(=O)(=O)c5ccc(NC(CCN6CCC(C(=O)OCCCP(=O)(O)O)CC6)CSc6ccccc6)c(S(=O)(=O)C(F)(F)F)c5)cc4)CC3)c2)c(-c2ccc(Cl)cc2)n1C(C)C: 61.8

Could you now look at the following compound, please?
Lookup result for NC1CCC(NC2CC2c2ccccc2)CC1 (stereo not drawn) + Cc1c(S(C)(=O)=O)c(-c2cc(F)cc(N3CCN(c4ccc(NS(=O)(=O)c5ccc(NC(CCN6CCC(C(=O)OCCCP(=O)(O)O)CC6)CSc6ccccc6)c(S(=O)(=O)C(F)(F)F)c5)cc4)CC3)c2)c(-c2ccc(Cl)cc2)n1C(C)C ; measured viability, T/C: 97.3
